Cited source for all entries: ChEMBL document CHEMBL1141980

- Assay Method Text: Diuretic activity was determined
- Assay type: ADME, tissue-based, Urine
- Parameters: reference not given here
Endpoint Name: pC

In the examples that follow, each entry is paired with its recorded pC.
Cc1ccc(S(N)(=O)=O)cc1 [P-TOLUENESULFONAMIDE] :: 0.182
Cc1cccc(S(N)(=O)=O)c1 :: 0.176
NS(=O)(=O)c1ccc(Cl)cc1 [P-CHLOROBENZENESULFONAMIDE] :: 0.286

a: NS(=O)(=O)c1ccccc1Cl
b: N#Cc1ccc(S(N)(=O)=O)cc1
c: COc1ccc(S(N)(=O)=O)cc1
Data request: Kindly order the items shown according to pC, from the highest value down. Ranked list of labels, please, in the requested order.
Data returned: b, a, c
(b: 1, a: 0.301, c: 0.188)

###

- Assay Method Text: Diuretic activity was determined
- Format: ADME, tissue-based, Urine
- Set-up: reference not given here
Endpoint Name: pC

Examples from the recorded data:
NS(=O)(=O)c1ccc(Br)cc1 :: 0.267
Nc1ccc(S(N)(=O)=O)cc1 [SULFANILAMIDE] :: -0.301
NS(=O)(=O)c1ccc(Cl)c(Cl)c1 :: 0.243
NS(=O)(=O)c1ccccc1 [BENZENESULFONAMIDE] :: 0.13

I: Cc1ccccc1S(N)(=O)=O
II: NS(=O)(=O)c1cccc([N+](=O)[O-])c1
Data request: Which value of pC is greater, the one for I or the one for II ? Give the label under which the chosen entry appears.
Data returned: II

###

- Assay Method Text: Diuretic activity was determined
- Assay type: ADME, tissue-based, Urine
- Parameters: reference not given here
Endpoint Name: pC

Example results:
NS(=O)(=O)c1ccc([N+](=O)[O-])c(C(F)(F)F)c1 :: 0.58
NS(=O)(=O)c1ccc(Cl)c([N+](=O)[O-])c1 :: 0.322
NS(=O)(=O)c1ccccc1[N+](=O)[O-] :: 0.301
CC(=O)c1ccc(S(N)(=O)=O)cc1 :: 0.398

1: NS(=O)(=O)c1cccc(Cl)c1
2: NS(=O)(=O)c1ccc([N+](=O)[O-])cc1
3: CNc1ccc(S(N)(=O)=O)cc1
Data request: // ranking: key=pC, reverse=True Write the labels in rank order as requested.
Data returned: 2, 1, 3
